- Subject Of Test: recombinant human GluN1/GluN2A receptor (Homo sapiens, UniProt Q05586+Q12879)
- Construct: expressed in transfected cells; host or cells: HEK293, tetracycline-inducible expression
- Sequence (Q12879 23-1464, other chains not shown): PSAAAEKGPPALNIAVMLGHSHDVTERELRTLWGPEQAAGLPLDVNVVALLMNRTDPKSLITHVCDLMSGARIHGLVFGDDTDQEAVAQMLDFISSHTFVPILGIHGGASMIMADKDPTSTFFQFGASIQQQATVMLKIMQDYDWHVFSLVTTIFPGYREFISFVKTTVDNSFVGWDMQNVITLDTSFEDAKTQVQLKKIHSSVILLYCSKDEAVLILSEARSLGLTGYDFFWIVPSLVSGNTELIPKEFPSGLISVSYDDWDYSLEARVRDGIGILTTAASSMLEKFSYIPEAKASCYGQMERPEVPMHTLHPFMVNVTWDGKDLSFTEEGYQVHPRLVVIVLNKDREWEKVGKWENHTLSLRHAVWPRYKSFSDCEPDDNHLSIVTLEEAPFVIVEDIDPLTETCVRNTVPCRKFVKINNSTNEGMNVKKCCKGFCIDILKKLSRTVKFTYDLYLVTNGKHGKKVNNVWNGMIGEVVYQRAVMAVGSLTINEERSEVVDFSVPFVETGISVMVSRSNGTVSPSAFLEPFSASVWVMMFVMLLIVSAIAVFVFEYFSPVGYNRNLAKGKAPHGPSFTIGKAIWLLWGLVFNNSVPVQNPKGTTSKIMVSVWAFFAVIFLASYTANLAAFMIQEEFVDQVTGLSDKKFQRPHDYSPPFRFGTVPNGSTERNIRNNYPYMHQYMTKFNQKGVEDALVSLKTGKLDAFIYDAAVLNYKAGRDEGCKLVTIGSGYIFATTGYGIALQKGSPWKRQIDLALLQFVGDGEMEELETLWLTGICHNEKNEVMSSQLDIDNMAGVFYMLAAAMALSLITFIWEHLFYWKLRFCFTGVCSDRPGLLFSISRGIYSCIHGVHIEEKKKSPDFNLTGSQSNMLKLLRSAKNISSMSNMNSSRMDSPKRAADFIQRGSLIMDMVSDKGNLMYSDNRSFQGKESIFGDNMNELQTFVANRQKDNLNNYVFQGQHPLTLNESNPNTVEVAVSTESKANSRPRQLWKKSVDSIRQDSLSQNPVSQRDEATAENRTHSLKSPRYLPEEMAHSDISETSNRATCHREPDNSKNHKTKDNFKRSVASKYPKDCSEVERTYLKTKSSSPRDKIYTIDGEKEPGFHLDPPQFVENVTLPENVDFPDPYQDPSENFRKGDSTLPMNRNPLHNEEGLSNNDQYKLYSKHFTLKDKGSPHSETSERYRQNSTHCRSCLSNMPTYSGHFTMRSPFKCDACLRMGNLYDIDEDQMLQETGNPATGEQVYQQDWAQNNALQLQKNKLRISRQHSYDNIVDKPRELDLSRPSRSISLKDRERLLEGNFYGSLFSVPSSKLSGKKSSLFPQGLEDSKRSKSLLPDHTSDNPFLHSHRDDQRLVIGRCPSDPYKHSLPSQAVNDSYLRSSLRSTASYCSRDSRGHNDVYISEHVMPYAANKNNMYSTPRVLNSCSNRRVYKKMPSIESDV
- Test Protocol: Whole-cell patch clamp of mammalian cells (Syncropatch 384i), NMDA modulation
- Format: cell-based
- Stated Conditions: Table B-2; HEK293 cells, human GluN1/GluN2A; glutamate 1 μM / glycine 100 μM; -80 mV; peak amplitude increase; read-out: EC50
pEC50: −log10 of the molar value.
Experimental Readout: pEC50

Batch: pEC50 for all items listed.
1. CC[C@]1(O)CC[C@@]2(C)[C@@H](CC[C@@H]3[C@@H]2CC[C@@]2(C)[C@H]3C[C@H]3C[C@]32[C@H](C)CCCC(C)(C)O)C1 [Compound B-8]
2. CC[C@]1(O)CC[C@@]2(C)[C@@H](CC[C@H]3[C@@H]4[C@H](C)C[C@H]([C@H](C)CC[C@@](C)(O)C(F)(F)F)[C@@]4(C)CC[C@@H]32)C1 [Compound B-16]
3. CC[C@]1(O)CC[C@@]2(C)[C@@H](CC[C@H]3[C@@H]4[C@H]5C[C@H]5[C@H]([C@H](C)CCCC(C)(C)O)[C@@]4(C)CC[C@@H]32)C1 [Compound B-4]
4. CC[C@]1(O)CC[C@@]2(C)[C@@H](CC[C@H]3[C@@H]4[C@H](C)C[C@H]([C@H](C)CC[C@](C)(O)C(F)(F)F)[C@@]4(C)CC[C@@H]32)C1 [Compound B-15]

Found:
1: < 6.00; 2: 6.30 to 7.00; 3: 7.00 to 9.00; 4: 7.00 to 9.00

----------
Could you please report measured EC50 for the items listed next?
- Subject Of Test: recombinant human GluN1/GluN2A receptor (Homo sapiens, UniProt Q05586+Q12879)
- Construct: expressed in transfected cells; host or cells: HEK293, tetracycline-inducible expression
- Test Protocol: Whole-cell patch clamp of mammalian cells (Syncropatch 384i), NMDA modulation
- Type: cell-based
- Stated Conditions: Table H-2; HEK293 cells, human GluN1/GluN2A; glutamate 1 μM / glycine 100 μM; -80 mV; peak amplitude increase; read-out: EC50

The examples below pair each entry with its known result.
C[C@H](CC[C@@](C)(O)C(F)(F)F)[C@H]1CCC[C@H]2[C@@H]3CC=C4C[C@@](C)(O)CC[C@]4(C)[C@H]3CC[C@]12C : 100 to 500 nM
C[C@H](CCC1(O)CCC(C)(C)CC1)[C@H]1CCC[C@H]2[C@@H]3CC[C@H]4C[C@](O)(C(F)(F)F)CC[C@]4(C)[C@H]3CC[C@]12C : > 1000 nM
CC[C@]1(O)CC[C@@]2(C)C(=CC[C@H]3[C@@H]4CCC[C@H]([C@H](C)CC[C@](C)(O)C(F)(F)F)[C@@]4(C)CC[C@@H]32)C1 : 100 to 500 nM
CC[C@]1(O)CC[C@@]2(C)[C@@H](CC[C@@H]3[C@@H]2CC[C@]2(C)[C@@H]([C@H](C)CCCC(C)(C)O)CCC[C@@H]32)C1 : 100 to 500 nM

# next molecule below
Lookup: Return EC50 for the following molecule: `CC(C)[C@H](O)CC[C@@H](C)[C@H]1CCC[C@H]2[C@@H]3CC=C4C[C@@](C)(O)CC[C@]4(C)[C@H]3CC[C@]12C`
Found: 100 to 500 nM

----------
- Subject Of Test: recombinant human GluN1/GluN2A receptor (Homo sapiens, UniProt Q05586+Q12879)
- Construct: expressed in transfected cells; host or cells: HEK293, tetracycline-inducible expression
- Test Protocol: Whole-cell patch clamp of mammalian cells (Syncropatch 384i), NMDA modulation
- Format: cell-based
- Stated Conditions: Table H-2; HEK293 cells, human GluN1/GluN2A; glutamate 1 μM / glycine 100 μM; -80 mV; peak amplitude increase
Could you please report measured Emax for the items listed next?

C[C@H](CC[C@](C)(O)C(F)(F)F)[C@H]1CCC[C@H]2[C@@H]3CC=C4C[C@@](C)(O)CC[C@]4(C)[C@H]3CC[C@]12C : 100 to 200%
CC(C)[C@H](O)CC[C@@H](C)[C@H]1CCC[C@H]2[C@@H]3CC=C4C[C@@](C)(O)CC[C@]4(C)[C@H]3CC[C@]12C : < 100%

Batch: Emax for all items listed.
1. CC[C@]1(O)CC[C@@]2(C)[C@@H](CC[C@@H]3[C@@H]2CC[C@]2(C)[C@@H]([C@H](C)CCCC(C)(C)O)CCC[C@@H]32)C1
2. CC[C@]1(O)CC[C@@]2(C)C(=CC[C@H]3[C@@H]4CCC[C@H]([C@H](C)CC[C@@H](O)C(C)C)[C@@]4(C)CC[C@@H]32)C1

Found:
100 to 200%
< 100%

----------
Could you please report measured Emax for the items listed next?
- Subject Of Test: recombinant human GluN1/GluN2A receptor (Homo sapiens, UniProt Q05586+Q12879)
- Construct: expressed in transfected cells; host or cells: HEK293, tetracycline-inducible expression
- Test Protocol: Whole-cell patch clamp of mammalian cells (Syncropatch 384i), NMDA modulation
- Assay type: cell-based
- Stated Conditions: Table D-2; HEK293 cells, human GluN1/GluN2A; glutamate 1 μM / glycine 100 μM; -80 mV; peak amplitude increase

The examples below pair each entry with its known result.
CCC1(O)CCC[C@@]2(C)[C@@H](CC[C@@H]3[C@@H]2CC[C@]2(C)[C@@H]([C@H](C)CC[C@](C)(O)C(F)(F)F)CC[C@@H]32)C1 (stereo in doubt) : 100 to 200%
CC[C@@]1(O)CC[C@@H]2CC[C@@H]3[C@H](CC[C@]4(C)[C@@H]([C@H](C)CC[C@@](C)(O)C(F)(F)F)CC[C@@H]34)[C@@]2(C)CC1 : < 100%
CC[C@@]1(O)CCC[C@@]2(C)[C@@H](CC[C@@H]3[C@@H]2CC[C@]2(C)[C@@H]([C@H](C)CC[C@@](C)(O)C(F)(F)F)CC[C@@H]32)C1 : 100 to 200%
CC[C@]1(O)CC[C@@H]2CC[C@@H]3[C@H](CC[C@]4(C)[C@@H]([C@H](C)CC[C@@](C)(O)C(F)(F)F)CC[C@@H]34)[C@@]2(C)CC1 : < 100%

Batch: Emax for all items listed.
1. CC[C@]1(O)CCC[C@@]2(C)C(=CC[C@H]3[C@@H]4CC[C@H]([C@H](C)CC[C@](C)(O)C(F)(F)F)[C@@]4(C)CC[C@@H]32)C1
2. CC[C@]1(O)CCC[C@@]2(C)[C@@H](CC[C@@H]3[C@@H]2CC[C@]2(C)[C@@H]([C@H](C)CC[C@@](C)(O)C(F)(F)F)CC[C@@H]32)C1
3. CC[C@]1(O)CCC[C@@]2(C)[C@@H](CC[C@@H]3[C@@H]2CC[C@]2(C)[C@@H]([C@H](C)CC[C@](C)(O)C(F)(F)F)CC[C@@H]32)C1
4. CC[C@@]1(O)CC[C@@H]2CC[C@@H]3[C@H](CC[C@]4(C)[C@@H]([C@H](C)CC[C@](C)(O)C(F)(F)F)CC[C@@H]34)[C@@]2(C)CC1
5. CC[C@]1(O)CCC[C@@]2(C)C(=CC[C@H]3[C@@H]4CC[C@H]([C@H](C)CCC(C)(C)O)[C@@]4(C)CC[C@@H]32)C1
6. C[C@H](CC[C@](C)(O)C(F)(F)F)[C@H]1CC[C@H]2[C@@H]3CC=C4C[C@@](C)(O)CCC[C@]4(C)[C@H]3CC[C@]12C
7. CC[C@@]1(O)CCC[C@@]2(C)C(=CC[C@H]3[C@@H]4CC[C@H]([C@H](C)CC[C@](C)(O)C(F)(F)F)[C@@]4(C)CC[C@@H]32)C1

Found:
["100 to 200%", "< 100%", "100 to 200%", "100 to 200%", "100 to 200%", "< 100%", "< 100%"]

----------
- Subject Of Test: recombinant human GluN1/GluN2A receptor (Homo sapiens, UniProt Q05586+Q12879)
- Construct: expressed in transfected cells; host or cells: HEK293, tetracycline-inducible expression
- Test Protocol: Whole-cell patch clamp of mammalian cells (Syncropatch 384i), NMDA modulation
- Format: cell-based
- Stated Conditions: Table E-2; HEK293 cells, human GluN1/GluN2A; glutamate 1 μM / glycine 100 μM; -80 mV; peak amplitude increase
Experimental Readout: Emax

CC[C@]1(O)CC[C@]2(C)C3=CC[C@]4(C)[C@@H]([C@H](C)CCC5(O)CC5)CC[C@H]4[C@@H]3CC[C@H]2C1 : > 200%
CC[C@]1(O)CC[C@]2(C)C3=CC[C@]4(C)[C@@H]([C@H](C)CC[C@@](C)(O)C(F)(F)F)CC[C@H]4[C@@H]3CC[C@H]2C1 : > 200%
C[C@H](CCCO)[C@H]1CC[C@H]2[C@@H]3CC[C@H]4C[C@@](C)(O)CC[C@]4(C)C3=CC[C@]12C : < 100%

Batch: Emax for all items listed.
1. CC[C@]1(O)CC[C@]2(C)C3=CC[C@]4(C)[C@@H]([C@H](C)CCC5(O)CCCC5)CC[C@H]4[C@@H]3CC[C@H]2C1
2. CC(C)[C@H](O)CC[C@@H](C)[C@H]1CC[C@H]2[C@@H]3CC[C@H]4C[C@@](C)(O)CC[C@]4(C)C3=CC[C@]12C
3. CC(C)[C@@H](O)CC[C@@H](C)[C@H]1CC[C@H]2[C@@H]3CC[C@H]4C[C@@](C)(O)CC[C@]4(C)C3=CC[C@]12C

Found:
1: > 200%; 2: 100 to 200%; 3: 100 to 200%

Lookup: Return Emax for the following molecule: `CC[C@]1(O)CC[C@]2(C)C3=CC[C@]4(C)[C@@H]([C@H](C)CC[C@]5(O)CCOC5)CC[C@H]4[C@@H]3CC[C@H]2C1`
Found: > 200%
